tested on: OVCAR-4 ovarian; assay: NCI tumour cell line growth inhibition, 48 h

compound	TGI
O=C1CCC(NC(=O)Cc2ccc(O)cc2)C(=O)N1 (stereo not given)	> 2500 µM
CC1=C(C#N)C(=O)N(/N=C/c2ccc(Cl)cc2)C(=O)/C1=c1\o/c(=C2/C(=O)N(/N=C/c3ccc(Cl)cc3)C(=O)C(C#N)=C2C)c2nccnc12	> 100 µM
Cc1cc2c(cc1Cl)SC(NNC(=O)c1ccncc1)=NS2(=O)=O	> 10 µM
O=C1CC(n2cccc2)c2cc(Br)sc21 (stereo not given)	> 100 µM
COc1cc(N)ccc1Nc1c2ccccc2nc2ccccc12	> 45.6 µM
